Molecular target: Myeloid Differentiation factor 2 (MD-2) (Homo sapiens, UniProt Q9Y6Y9)
Construct: Recombinant human MD-2 (R&D Systems 1787-MD-050/CF)
Sequence (Q9Y6Y9 19-160): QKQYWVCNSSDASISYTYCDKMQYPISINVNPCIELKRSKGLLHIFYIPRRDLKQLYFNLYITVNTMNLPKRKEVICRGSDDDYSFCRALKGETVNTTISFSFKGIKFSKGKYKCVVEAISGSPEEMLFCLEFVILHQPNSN
Test: SPR competition against Lipid A ([…]) on immobilized MD-2
Conditions: read-out: Inhibition Constant (Ki)
Exercise: state measured Ki for each of the molecules provided.
One number for each entry, in nM.

Query string: Enter reported Ki observed with Myeloid Differentiation factor 2 (MD-2) (Homo sapiens, UniProt Q9Y6Y9) for `C[C@]12CC[C@@H](O)C[C@@H]1CC[C@@H]1[C@@H]2CC[C@]2(C)[C@@H](C(=O)CO)CC[C@@H]12`
Result string: 57.6

Query string: Try this molecule next: `C[C@@]1(O)CC[C@H]2[C@H](CC[C@@H]3[C@@H]2CC[C@]2(C)[C@@H](C(=O)Cn4nccn4)CC[C@@H]32)C1`
Result string: 61.3

Others:
Query string: Look up Ki with Myeloid Differentiation factor 2 (MD-2) (Homo sapiens, UniProt Q9Y6Y9) for this molecule: `CC(=O)[C@H]1CC[C@H]2[C@@H]3CCC4=CC(=O)CC[C@]4(C)[C@H]3CC[C@]12C`
Result string: 49.4
